- MEASURED ON: LTB4 receptor (Cavia porcellus)
The threshold is 20 µM. Values of IC50 beneath it are tagged Y; values meeting or exceeding it are tagged N.

Exam item: Below 20 µM on IC50? Entry O=C(O)c1ccccc1Sc1cccc(OCCCN2CCN(Cc3ccc(Cl)cc3)CC2)c1
Marked response: Y

Exam item: Regarding O=C(O)c1ccc(Sc2ccc(OCc3ccc4cc(Cl)ccc4n3)cc2)cc1 , kindly confirm whether its IC50 is beneath 20 µM.
Marked response: N

Exam item: Identify whether the compound O=C(O)Cc1ccccc1Sc1ccc(OCc2ccc3ccccc3n2)cc1 records IC50 below 20 µM.
Marked response: N

Exam item: Answer whether the compound CCCc1c(OCCCCOc2ccc(Sc3ccccc3CC(=O)O)cc2)ccc(C(C)=O)c1O has IC50 strictly less than 20 µM
Marked response: Y

Exam item: Is IC50 of O=C(O)c1ccccc1Sc1cccc(OCc2ccc3cc(Cl)ccc3n2)c1 strictly below 20 µM?
Marked response: Y

Exam item: Could you please tell me whether IC50 recorded for CCCc1c(OCCOc2ccc(Sc3ccc(C(=O)O)cc3)cc2)ccc(C(C)=O)c1O is less than 20 µM?
Marked response: Y

Exam item: Consider the compound O=C(O)c1ccc(Sc2ccc(OCc3ccc4ccccc4n3)cc2)cc1 . Is its IC50 strictly less than 20 µM?
Marked response: N

Exam item: Say whether its IC50 is strictly beneath 20 µM. Entry: CCCc1c(OCCCOc2ccc(Sc3ccccc3C(=O)O)cc2)ccc(C(C)=O)c1O
Marked response: Y

====

- MEASURED ON: LTB4 receptor (Cavia porcellus, UniProt H0VYV8)
- Sequence (H0VYV8 1-348): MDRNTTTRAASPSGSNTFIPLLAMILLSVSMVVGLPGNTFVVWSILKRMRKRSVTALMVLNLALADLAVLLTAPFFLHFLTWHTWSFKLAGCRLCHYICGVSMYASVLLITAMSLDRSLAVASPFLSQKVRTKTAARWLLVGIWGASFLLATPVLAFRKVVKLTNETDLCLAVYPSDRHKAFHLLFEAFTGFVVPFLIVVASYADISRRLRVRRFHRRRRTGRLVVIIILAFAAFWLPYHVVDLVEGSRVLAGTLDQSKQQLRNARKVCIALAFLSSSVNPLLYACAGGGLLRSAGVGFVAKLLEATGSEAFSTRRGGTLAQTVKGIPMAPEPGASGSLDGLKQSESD
- METHOD NOTES: LTB4 receptor binding study
- EXPERIMENTAL CONTEXT: at 20 μM; 3H-LTB4, guinea-pig spleen membranes; read-out: Inh. of LTB4 rec. binding, %
Kindly return Met if reported inhibition at 20 µM is no lower than 40%; return Not met if it is lower.

Exam item: Evaluate CCCc1c(OCCCOc2cccc(Sc3ccc(C(=O)O)cc3)c2)ccc(C(C)=O)c1O : inhibition at 20 µM at minimum 40%?
Marked response: Met

Exam item: Check this compound for inhibition at 20 µM at or above 40%: COc1cc(C(=O)NS(=O)(=O)c2ccccc2C)ccc1Cc1cn(C)c2ccc(NC(=O)OC3CCCC3)cc12 [Accolate, reference compound]
Marked response: Not met

Exam item: Can O=C(O)Cc1ccccc1Sc1cccc(OCCCN2CCN(Cc3ccc(Cl)cc3)CC2)c1 be said to have inhibition at 20 µM at or above 40%?
Marked response: Met

Exam item: # check: inhibition at 20 µM of O=C(O)c1ccccc1Sc1ccc(OCc2ccc3ccccc3n2)cc1 is greater than or equal to 40%
Marked response: Not met

Exam item: Please check the record O=C(O)Cc1ccccc1Sc1ccc(OCc2ccc3cc(Cl)ccc3n2)cc1 and state if its inhibition at 20 µM is at or above 40%.
Marked response: Not met

Exam item: Is it the case that CCCc1c(OCCCCOc2ccc(Sc3ccc([N+](=O)[O-])cc3C(=O)O)cc2)ccc(C(C)=O)c1O has inhibition at 20 µM reaching or exceeding 40%?
Marked response: Met

Exam item: Assess whether reported inhibition at 20 µM for CCCc1c(OCCCOc2cccc(Sc3ccccc3C(=O)O)c2)ccc(C(C)=O)c1O sits at 40% or higher.
Marked response: Met

Exam item: Is inhibition at 20 µM at least 40%? Consider CCCc1c(OCCOc2cccc(Sc3ccc(C(=O)O)cc3)c2)ccc(C(C)=O)c1O
Marked response: Met

Exam item: Could you verify whether the entry O=C(O)Cc1ccc(Sc2ccc(OCc3ccc4ccccc4n3)cc2)cc1 shows inhibition at 20 µM of no less than 40%?
Marked response: Met

Exam item: Reported inhibition at 20 µM at or above 40%? O=C(O)c1ccccc1Sc1cccc(OCCCN2CCN(Cc3ccc(Cl)cc3)CC2)c1
Marked response: Met

Exam item: Confirm if inhibition at 20 µM reported for the compound CCCc1c(OCCCOc2ccc(Sc3ccccc3CC(=O)O)cc2)ccc(C(C)=O)c1O is 40% or above.
Marked response: Not met

Exam item: Check the entry O=C(O)c1ccccc1Sc1ccc(OCCN2CCN(Cc3ccc(Cl)cc3)CC2)cc1 : does inhibition at 20 µM equal or exceed 40%?
Marked response: Not met

Exam item: Given O=C(O)c1ccc(Sc2cccc(OCc3ccc4ccccc4n3)c2)cc1 , state whether its inhibition at 20 µM is at least 40%.
Marked response: Not met

Exam item: Could you verify whether the entry CCCc1c(OCCCCOc2ccc(Sc3ccccc3C(=O)O)cc2)ccc(C(C)=O)c1O shows inhibition at 20 µM of no less than 40%?
Marked response: Met

Exam item: Decide: inhibition at 20 µM of O=C(O)c1ccc(Sc2ccc(OCc3ccc4cc(Cl)ccc4n3)cc2)cc1 >= 40%?
Marked response: Not met

Exam item: API: above_or_equal(metric=inhibition at 20 µM, cutoff=40%) for item O=C(O)c1ccccc1Sc1cccc(OCc2ccc3cc(Cl)ccc3n2)c1
Marked response: Not met

====

Protein target, amino acids: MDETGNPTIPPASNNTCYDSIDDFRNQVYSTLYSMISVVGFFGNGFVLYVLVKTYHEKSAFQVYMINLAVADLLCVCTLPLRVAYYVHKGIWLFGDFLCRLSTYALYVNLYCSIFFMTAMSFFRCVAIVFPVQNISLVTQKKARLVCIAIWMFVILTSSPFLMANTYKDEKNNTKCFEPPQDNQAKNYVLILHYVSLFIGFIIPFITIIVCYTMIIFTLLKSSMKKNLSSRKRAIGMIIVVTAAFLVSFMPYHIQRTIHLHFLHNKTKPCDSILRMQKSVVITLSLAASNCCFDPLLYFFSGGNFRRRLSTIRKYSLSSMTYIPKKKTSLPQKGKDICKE
pIC50: −log10 of the molar value.
Mark FALSE for pIC50 values under 6, and TRUE for everything at or above.

Exam item: Can COc1cc(C(=O)NS(=O)(=O)c2ccccc2C)ccc1Cc1cn(C)c2ccc(NC(=O)OC3CCCC3)cc12 [Accolate, reference compound] be said to have pIC50 at or above 6?
Marked response: TRUE

Exam item: Say whether CCCc1c(OCCCCOc2ccc(Sc3ccccc3CC(=O)O)cc2)ccc(C(C)=O)c1O shows pIC50 of 6 or more.
Marked response: FALSE

Exam item: Reported pIC50 at or above 6? O=C(O)c1ccc(Sc2ccc(OCc3ccc4ccccc4n3)cc2)cc1
Marked response: TRUE

Exam item: Can O=C(O)c1ccc(Sc2ccc(OCc3ccc4cc(Cl)ccc4n3)cc2)cc1 be said to have pIC50 at or above 6?
Marked response: FALSE

Exam item: Please check the record CCCc1c(OCCCOc2ccc(Sc3ccc(C(=O)O)cc3)cc2)ccc(C(C)=O)c1O and state if its pIC50 is at or above 6.
Marked response: FALSE

Exam item: # check: pIC50 of O=C(O)c1ccccc1Sc1ccc(OCc2ccc3ccccc3n2)cc1 is greater than or equal to 6
Marked response: FALSE

Exam item: Answer whether pIC50 of CCCc1c(OCCCCOc2cccc(Sc3ccc(C(=O)O)cc3[N+](=O)[O-])c2)ccc(C(C)=O)c1O is greater than or equal to 6.
Marked response: FALSE

Exam item: Does the reported pIC50 for O=C(O)c1ccccc1Sc1cccc(OCc2ccc3cc(Cl)ccc3n2)c1 fall at or above the 6 mark?
Marked response: TRUE

====

- MEASURED ON: LTB4 receptor (Cavia porcellus)
- METHOD NOTES: LTB4 receptor binding study
- EXPERIMENTAL CONTEXT: at 20 μM; 3H-LTB4, guinea-pig spleen membranes; read-out: Inh. of LTB4 rec. binding, %
Exercise: for every item that follows, state its recorded inhibition at 20 µM.
Note: unit % is implicit; provide only the numeric part.

Exam item: Request: inhibition at 20 µM, test system LTB4 receptor (Cavia porcellus), entry O=C(O)c1ccccc1Sc1ccc(OCc2ccc3cc(Cl)ccc3n2)cc1 [Compound 21]
Marked response: 39

Exam item: Form entry - test system: LTB4 receptor (Cavia porcellus); read-out: inhibition at 20 µM; molecule: NC(=O)N1C(=O)C(=C(O)c2cccs2)c2cc(Cl)ccc21 [Tenidap Na^+, reference compound]
Marked response: 8

Exam item: Checklist item: inhibition at 20 µM tested on LTB4 receptor (Cavia porcellus), entry CCCc1c(OCCCOc2ccc(Sc3ccc(C(=O)O)cc3)cc2)ccc(C(C)=O)c1O [Compound 3] , value?
Marked response: 50

Exam item: Find inhibition at 20 µM (LTB4 receptor (Cavia porcellus)) for the entry CCCc1c(OCCCOc2ccc(Sc3ccccc3C(=O)O)cc2)ccc(C(C)=O)c1O [Compound 4]
Marked response: 47

====

So I've got a bunch of molecules here, and I need their inhibition in vivo at 200 mg/kg values.
- Test system: male mice
- METHOD NOTES: Inhibition of arachidonic acid-induced ear inflammation in mice
- Format: in vivo
- EXPERIMENTAL CONTEXT: Mus musculus, po, 1 h, values with mark n: p > 0.05, read-out: Ear edema, E: hyperemia of ear lobe, % of inh.
Express the result in % but write the number alone.

Exam item: Which value of inhibition in vivo at 200 mg/kg has been reported for CCCc1c(OCCCCOc2ccc(Sc3ccccc3C(=O)O)cc2)ccc(C(C)=O)c1O in the records?
Marked response: 5

Exam item: What value of measured inhibition in vivo at 200 mg/kg is listed for O=C(O)c1ccccc1Sc1ccc(OCc2ccc3ccccc3n2)cc1 ?
Marked response: 5

Exam item: May I ask what inhibition in vivo at 200 mg/kg has been recorded for CCCc1c(OCCCOc2ccc(Sc3ccc(C(=O)O)cc3)cc2)ccc(C(C)=O)c1O ?
Marked response: 5
